Experiment: Biodistribution of DMAMCL in rats after a single oral dose (UPLC-MS/MS)
Type: in vivo, Wistar rats
Details: Wistar, rat, brain; rats, single oral dose 100 mg/kg, 0.5h; read-out: C brain / C plasma
MEASURED_PARAMETER: Kp at 0.5 h

Input: Requested field: Kp at 0.5 h. Item: CC1=C2CC[C@@](C)(O)[C@@H]2[C@H]2OC(=O)[C@@H](CN(C)C)[C@@H]2CC1 [DMAMCL, dimethylaminomicheliolide]
Output: 1.84

====

Experiment: Biodistribution of DMAMCL in rats after a single oral dose (UPLC-MS/MS)
Format: in vivo, Wistar rats
Conditions: Wistar, rat, brain; single oral dose 100 mg/kg; read-out: Time of peak concentration in rat brain
MEASURED_PARAMETER: Tmax (min)
The response must be a number in min with no trailing unit.

Input: Requested field: Tmax. Item: CC1=C2CC[C@@](C)(O)[C@@H]2[C@H]2OC(=O)[C@@H](CN(C)C)[C@@H]2CC1 [DMAMCL, dimethylaminomicheliolide]
Output: 30

====

Assay: Biodistribution of DMAMCL in rats after a single oral dose (UPLC-MS/MS)
Type: in vivo, Wistar rats
Details: Wistar, rat, plasma; single oral dose 100 mg/kg, 3 hours; read-out: Concentration in plasma
Protocol: All rats had free access to food and water. Before drug administration, rats were fasted for 12 h and water was freely available. Aqueous DMAMCL solutions were administered orally (100 mg/kg) (n = 6 rats per group). Blood and tissue samples from rats were collected at the setting time and analyzed on an ultraperformance liquid chromatography-mass spectrometry (UPLC-MS/MS) system (Waters/Micromass, Milford, MA) using noncompartmental analyses. […]
MEASURED_PARAMETER: concentration at 3 h
Lab note: write values as number then unit, every time.

Input: Requested field: concentration at 3 h. Item: CC1=C2CC[C@@](C)(O)[C@@H]2[C@H]2OC(=O)[C@@H](CN(C)C)[C@@H]2CC1 [DMAMCL, dimethylaminomicheliolide]
Output: 2570 ng/mL

====

Experiment: Biodistribution of DMAMCL in rats after a single oral dose (UPLC-MS/MS)
Type: in vivo, Wistar rats
Conditions: Wistar, rat, brain; rats, single oral dose 100 mg/kg, 3h; read-out: C brain / C plasma
Procedure: All rats had free access to food and water. Before drug administration, rats were fasted for 12 h and water was freely available. Aqueous DMAMCL solutions were administered orally (100 mg/kg) (n = 6 rats per group). Blood and tissue samples from rats were collected at the setting time and analyzed on an ultraperformance liquid chromatography-mass spectrometry (UPLC-MS/MS) system (Waters/Micromass, Milford, MA) using noncompartmental analyses. […]
MEASURED_PARAMETER: Kp at 3 h

Input: Requested field: Kp at 3 h. Item: CC1=C2CC[C@@](C)(O)[C@@H]2[C@H]2OC(=O)[C@@H](CN(C)C)[C@@H]2CC1 [DMAMCL, dimethylaminomicheliolide]
Output: 1.91

====

Assay: Biodistribution of DMAMCL in rats after a single oral dose (UPLC-MS/MS)
Assay type: in vivo, Wistar rats
Conditions: Wistar, rat, brain; rats, single oral dose 100 mg/kg, 0.083h; read-out: C brain / C plasma
MEASURED_PARAMETER: Kp at 0.083 h
Keep the answer to the number alone.

Input: Requested field: Kp at 0.083 h. Item: CC1=C2CC[C@@](C)(O)[C@@H]2[C@H]2OC(=O)[C@@H](CN(C)C)[C@@H]2CC1 [DMAMCL, dimethylaminomicheliolide]
Output: 1.45
